- Tested on: BT-549
- testName: NCI-60 SRB screen: breast cancer BT-549
- Format: cell-based, human
- assayConditions: Homo sapiens; BT-549; five concentrations, 48 h, SRB; read-out: GI50
observedProperty: GI50 (µM)
Please give a number only; it is taken to be in µM.

Field: example entries. Status: answers known.
molecule: C=C(C)[C@@H]1CC[C@]2(C(=O)NCCNCCNCCN)CC[C@]3(C)[C@H](CC[C@@H]4[C@@]5(C)CCC(=O)C(C)(C)[C@@H]5CC[C@]43C)[C@@H]12 [Compound 11]
GI50 / µM: 8.91

molecule: C=C(C)[C@@H]1CC[C@]2(C(=O)OC)CC[C@]3(C)[C@H](CC[C@@H]4[C@@]5(C)CCC(=NOCCC(=NOCCC#N)NCCC#N)C(C)(C)[C@@H]5CC[C@]43C)[C@@H]12 [Compound 21]
GI50 / µM: 11.3

molecule: C=C(C)[C@@H]1CC[C@]2(C(=O)NCCNCCNCCN)CC[C@]3(C)[C@H](CC[C@@H]4[C@@]5(C)CC[C@H](O)C(C)(C)[C@@H]5CC[C@]43C)[C@@H]12 [Compound 6]
GI50 / µM: 15

molecule: C=C(C)[C@@H]1CC[C@]2(C(=O)NCCCN)CC[C@]3(C)[C@H](CC[C@@H]4[C@@]5(C)CCC(=O)C(C)(C)[C@@H]5CC[C@]43C)[C@@H]12 [Compound 10]
GI50 / µM: 23.8

Prompt: Which GI50 is listed for CC(=O)OCC12CCC(C(C)C(N)=O)C1C1CCC3C4(C)CCC(OC(C)=O)C(C)(C)C4CCC3(C)C1(C)CC2 (centres unmarked) [Compound 4] ?
Response: 8.17

====

- Tested on: MDA-MB-468
- testName: NCI-60 SRB screen: breast cancer MDA-MB-468
- Assay type: cell-based, human
- assayConditions: single dose 10 µM
I would appreciate it if you labelled entries MET when Percentage Cell Growth is -40% or higher, otherwise NOT MET.

Answered examples (4):
sampleSmiles: C=C(C)[C@@H]1CC[C@]2(C(=O)OC)CC[C@]3(C)[C@H](CC[C@@H]4[C@@]5(C)CCC(=NOCCC(=NOCCC#N)NCCC#N)C(C)(C)[C@@H]5CC[C@]43C)[C@@H]12
groupLabel: MET
--
sampleSmiles: C=C(C)[C@@H]1CC[C@]2(C(=O)NCCNCCNCCN)CC[C@]3(C)[C@H](CC[C@@H]4[C@@]5(C)CCC(=O)C(C)(C)[C@@H]5CC[C@]43C)[C@@H]12
groupLabel: NOT MET
--
sampleSmiles: C=C(C)[C@@H]1CC[C@]2(C(N)=O)CC[C@]3(C)[C@H](CC[C@@H]4[C@@]5(C)CC[C@H](O)C(C)(C)[C@@H]5CC[C@]43C)[C@@H]12
groupLabel: NOT MET
--
sampleSmiles: C=C(C)[C@@H]1CC[C@]2(C(=O)NCCCN)CC[C@]3(C)[C@H](CC[C@@H]4[C@@]5(C)CCC(=O)C(C)(C)[C@@H]5CC[C@]43C)[C@@H]12
groupLabel: MET

// switching to the query compound
Prompt: Answer whether Percentage Cell Growth of C=C(C)[C@@H]1CC[C@]2(C(=O)NCCNCCNCCN)CC[C@]3(C)[C@H](CC[C@@H]4[C@@]5(C)CC[C@H](O)C(C)(C)[C@@H]5CC[C@]43C)[C@@H]12 is greater than or equal to -40%.
Response: NOT MET

====

- Tested on: NCI-H226
- testName: NCI-60 SRB screen: non-small cell lung cancer NCI-H226
- Type: cell-based, human
- assayConditions: NCI-H226; single dose 10 µM
observedProperty: Percentage Cell Growth (%)
Output spec: scalar in %, unitless text.

Examples from the recorded data:
compound: C=C(C)[C@@H]1CC[C@]2(C(=O)OC)CC[C@]3(C)[C@H](CC[C@@H]4[C@@]5(C)CCC(=NOCCC(=NOCCC#N)NCCC#N)C(C)(C)[C@@H]5CC[C@]43C)[C@@H]12 [Compound 21]
observedProperty: Percentage Cell Growth
reportedMeasurement: 2.42
--
compound: C=C(C)[C@@H]1CC[C@]2(C(=O)NCCCN)CC[C@]3(C)[C@H](CC[C@@H]4[C@@]5(C)CCC(=O)C(C)(C)[C@@H]5CC[C@]43C)[C@@H]12 [Compound 10]
observedProperty: Percentage Cell Growth
reportedMeasurement: 36.64
--
compound: C=C(C)[C@@H]1CC[C@]2(C(=O)NCCNCCNCCN)CC[C@]3(C)[C@H](CC[C@@H]4[C@@]5(C)CC[C@H](O)C(C)(C)[C@@H]5CC[C@]43C)[C@@H]12 [Compound 6]
observedProperty: Percentage Cell Growth
reportedMeasurement: −23.56
--
compound: C=C(C)[C@@H]1CC[C@]2(C(=O)NCCNCCNCCN)CC[C@]3(C)[C@H](CC[C@@H]4[C@@]5(C)CCC(=O)C(C)(C)[C@@H]5CC[C@]43C)[C@@H]12 [Compound 11]
observedProperty: Percentage Cell Growth
reportedMeasurement: 74.30
--
compound: C=C(C)[C@@H]1CC[C@]2(C(N)=O)CC[C@]3(C)[C@H](CC[C@@H]4[C@@]5(C)CC[C@H](O)C(C)(C)[C@@H]5CC[C@]43C)[C@@H]12 [Compound 5]
observedProperty: Percentage Cell Growth
reportedMeasurement: −50.47

Prompt: // map CC(=O)OCC12CCC(C(C)C(N)=O)C1C1CCC3C4(C)CCC(OC(C)=O)C(C)(C)C4CCC3(C)C1(C)CC2 (stereo not drawn) [Compound 4] to recorded Percentage Cell Growth (system: NCI-H226)
Response: −58.51

====

- Test system: OVCAR-3
- testName: NCI-60 SRB screen: ovarian cancer OVCAR-3
- Format: cell-based, human
- assayConditions: Homo sapiens; OVCAR-3; five concentrations, 48 h, SRB; read-out: GI50
Items are presented alongside their recorded GI50.
Please respond with the number in µM and leave the unit unwritten.

// known answers, use as guide
compound: C=C(C)[C@@H]1CC[C@]2(C(=O)NCCCN)CC[C@]3(C)[C@H](CC[C@@H]4[C@@]5(C)CCC(=O)C(C)(C)[C@@H]5CC[C@]43C)[C@@H]12 [Compound 10]
GI50 [µM]: 15.7

compound: C=C(C)[C@@H]1CC[C@]2(C(=O)NCCNCCNCCN)CC[C@]3(C)[C@H](CC[C@@H]4[C@@]5(C)CC[C@H](O)C(C)(C)[C@@H]5CC[C@]43C)[C@@H]12 [Compound 6]
GI50 [µM]: 12.2

compound: CC(=O)OCC12CCC(C(C)C(N)=O)C1C1CCC3C4(C)CCC(OC(C)=O)C(C)(C)C4CCC3(C)C1(C)CC2 (centres unmarked) [Compound 4]
GI50 [µM]: 3.95

compound: C=C(C)[C@@H]1CC[C@]2(C(=O)OC)CC[C@]3(C)[C@H](CC[C@@H]4[C@@]5(C)CCC(=NOCCC(=NOCCC#N)NCCC#N)C(C)(C)[C@@H]5CC[C@]43C)[C@@H]12 [Compound 21]
GI50 [µM]: 5.17

Alright, here's another compound for you.
Prompt: Entry C=C(C)[C@@H]1CC[C@]2(C(=O)NCCNCCNCCN)CC[C@]3(C)[C@H](CC[C@@H]4[C@@]5(C)CCC(=O)C(C)(C)[C@@H]5CC[C@]43C)[C@@H]12 [Compound 11] has what GI50?
Response: 7.65

====

- System: SK-MEL-2
- testName: NCI-60 SRB screen: melanoma SK-MEL-2
- Type: cell-based, human
- assayConditions: SK-MEL-2; single dose 10 µM
Cut-off -20% on Percentage Cell Growth, inclusive. At or above means label 1; below means label 0.

Solved cases below.
molecule: C=C(C)[C@@H]1CC[C@]2(C(=O)OC)CC[C@]3(C)[C@H](CC[C@@H]4[C@@]5(C)CCC(=NOCCC(=NOCCC#N)NCCC#N)C(C)(C)[C@@H]5CC[C@]43C)[C@@H]12
groupLabel: label 1
//
molecule: C=C(C)[C@@H]1CC[C@]2(C(=O)NCCNCCNCCN)CC[C@]3(C)[C@H](CC[C@@H]4[C@@]5(C)CCC(=O)C(C)(C)[C@@H]5CC[C@]43C)[C@@H]12
groupLabel: label 1
//
molecule: C=C(C)[C@@H]1CC[C@]2(C(=O)NCCNCCNCCN)CC[C@]3(C)[C@H](CC[C@@H]4[C@@]5(C)CC[C@H](O)C(C)(C)[C@@H]5CC[C@]43C)[C@@H]12
groupLabel: label 0
//
molecule: C=C(C)[C@@H]1CC[C@]2(C(N)=O)CC[C@]3(C)[C@H](CC[C@@H]4[C@@]5(C)CC[C@H](O)C(C)(C)[C@@H]5CC[C@]43C)[C@@H]12
groupLabel: label 0

Prompt: Quick check, Percentage Cell Growth >= -20%? C=C(C)[C@@H]1CC[C@]2(C(=O)NCCCN)CC[C@]3(C)[C@H](CC[C@@H]4[C@@]5(C)CCC(=O)C(C)(C)[C@@H]5CC[C@]43C)[C@@H]12
Response: label 0

Prompt: Check CC(=O)OCC12CCC(C(C)C(N)=O)C1C1CCC3C4(C)CCC(OC(C)=O)C(C)(C)C4CCC3(C)C1(C)CC2 (stereo not drawn) too.
Response: label 0
